Every entry's value here was drawn from paper PMC9482650.

Molecular target: T1, DLG3_2, Q92796
T1 sequence (Q92796 221-321, limits assumed, looked up): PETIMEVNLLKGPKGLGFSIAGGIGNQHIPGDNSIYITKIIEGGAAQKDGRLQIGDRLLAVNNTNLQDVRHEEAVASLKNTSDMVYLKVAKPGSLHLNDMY
Test: holdup assay
Set-up: key: below the threshold = too weak to quantify, mostly under pKd 3.1 to 4
Settings: plain residues with an end cap or a label only (N-terminal biotin on a linker: ado-ado)
measurement_name: pKd
Please reply with the number alone, leaving off any unit.

Some solved entries appear below for comparison.
>>> print(df.to_string())
                         binder  endpoint_value
0    RGKNRRQSIF [CDK18, Q07002]            4.19
1   KIEDVEITLV [FCHSD2, O94868]            3.53
2     THREVKFTSL [CD46, P15529]            4.23
3  GTMFLRETSL [GUCY1A2, P33402]            4.51
4     KPDKQEEFYA [SDC3, O75056]            4.05

Exam item: Give the value of pKd reported for the following: SGDGKTSVWI [GJC1, P36383]
Marked response: 4.16
